Below, each entry is listed with its recorded inhibition at 1 µM.
target-or-system: CXCR4 (Homo sapiens (Human), UniProt P61073)
Sequence (P61073 whole entry): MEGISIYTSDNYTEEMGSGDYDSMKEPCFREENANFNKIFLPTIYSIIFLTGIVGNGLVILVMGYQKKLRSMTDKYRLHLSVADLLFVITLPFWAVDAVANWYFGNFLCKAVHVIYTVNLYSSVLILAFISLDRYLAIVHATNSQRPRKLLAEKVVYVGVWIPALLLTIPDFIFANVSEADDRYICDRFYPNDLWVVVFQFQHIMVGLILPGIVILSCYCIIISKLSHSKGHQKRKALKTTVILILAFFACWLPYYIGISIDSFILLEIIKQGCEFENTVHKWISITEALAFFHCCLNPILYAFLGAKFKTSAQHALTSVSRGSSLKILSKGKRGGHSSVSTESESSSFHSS
experimental-protocol: Functional calcium mobilization assay (SDF-1α induced)
Type: cell-based
settings: CCRF-CEM, read-out: % inhibition at 1 μM
Method: Functional modulation of CXCR4 was determined by calcium mobilization assay using leukemic lymphoid CEM cells, which naturally express high levels of CXCR4. Generally, the assay is carried out as follows: Cells are grown in vitro to confluency. […] Compound plates were generated containing up to 3% dimethyl sulfoxide in media kept at room temperature. […] This first read was used to determine direct agonist activation of the CXCR4 receptor by the test compounds. […]

[
  {
    "molecule": "NCc1ccc(CN(Cc2nccc3c2[nH]c2ccccc23)[C@H]2CCCc3cccnc32)cc1",
    "inhibition at 1 µM [%]": 0
  },
  {
    "molecule": "CCN(CC)CCCCN(Cc1nccc2c1[nH]c1ccccc12)C1CCCc2cccnc21 (centres unmarked)",
    "inhibition at 1 µM [%]": 4
  },
  {
    "molecule": "CCNC(=O)NCCCCN(Cc1nccc2c1[nH]c1ccccc12)[C@H]1CCCc2cccnc21",
    "inhibition at 1 µM [%]": 0
  },
  {
    "molecule": "CC(C)CN(Cc1nccc2c3ccccc3n(CCCN)c12)[C@H]1CCCc2cccnc21",
    "inhibition at 1 µM [%]": 0
  },
  {
    "molecule": "CS(=O)(=O)N1CCN(CCCN(Cc2nccc3c2[nH]c2ccccc23)C2CCCc3cccnc32)CC1 (centres unmarked)",
    "inhibition at 1 µM [%]": 27
  },
  {
    "molecule": "c1cnc2c(c1)CCCC2N(CCN1CCNCC1)Cc1nccc2c1[nH]c1ccccc12 (centres unmarked)",
    "inhibition at 1 µM [%]": 0
  },
  {
    "molecule": "c1cnc2c(c1)CCCC2N(CCN1CCOCC1)Cc1nccc2c1[nH]c1ccccc12 (centres unmarked)",
    "inhibition at 1 µM [%]": 1
  },
  {
    "molecule": "O=C(Cn1c2ccccc2c2ccnc(CN(Cc3ccc(CNCc4ccccn4)cc3)[C@H]3CCCc4cccnc43)c21)N1CCOCC1",
    "inhibition at 1 µM [%]": 0
  },
  {
    "molecule": "O=C(CN(Cc1nccc2c1[nH]c1ccccc12)[C@H]1CCCc2cccnc21)NC1CCNCC1",
    "inhibition at 1 µM [%]": 0
  },
  {
    "molecule": "NCCN(Cc1nccc2c1[nH]c1ccccc12)C1CCCc2cccnc21 (centres unmarked)",
    "inhibition at 1 µM [%]": 0
  },
  {
    "molecule": "O=C(Cn1c2ccccc2c2ccnc(CN(C(=O)CCN3CCNCC3)[C@H]3CCCc4cccnc43)c21)N1CCOCC1",
    "inhibition at 1 µM [%]": 0
  },
  {
    "molecule": "O=C1CNCCN1CCCN(Cc1nccc2c3ccccc3n(CC(=O)N3CCOCC3)c12)[C@H]1CCCc2cccnc21",
    "inhibition at 1 µM [%]": 0
  },
  {
    "molecule": "CC(C)CN(CCCCN(Cc1nccc2c1[nH]c1ccccc12)[C@H]1CCCc2cccnc21)CC(C)C",
    "inhibition at 1 µM [%]": 23
  },
  {
    "molecule": "NCc1ccc(CN(Cc2nccc3c4ccccc4n(CC(=O)N4CCOCC4)c23)[C@H]2CCCc3cccnc32)cc1",
    "inhibition at 1 µM [%]": 0
  },
  {
    "molecule": "c1ccc(CN(CCCCN(Cc2nccc3c2[nH]c2ccccc23)C2CCCc3cccnc32)Cc2ccccn2)nc1 (centres unmarked)",
    "inhibition at 1 µM [%]": 27
  },
  {
    "molecule": "NCCCCN(Cc1cc2c3ccccc3n(CC(=O)N3CCOCC3)c2cn1)[C@H]1CCCc2cccnc21",
    "inhibition at 1 µM [%]": 0
  },
  {
    "molecule": "N[C@@H](CCCN(Cc1nccc2c3ccccc3n(CC(=O)N3CCOCC3)c12)[C@H]1CCCc2cccnc21)C(=O)O",
    "inhibition at 1 µM [%]": 0
  }
]
